test: Pharmacokinetic properties in mouse after single intravenous and oral administration; details: female, plasma, iv, 0.2 mg/kg
recorded endpoint: half-life (min)
# number only, unit min dropped from output

Input: Entry COCCn1cc(C(=O)Nc2nc3c(OC)ncc(N4CCOCC4)c3s2)cn1 [compound 4] has what half-life?
Output: 34.5

Input: Entry COc1ccc(N2CCOCC2)c2sc(NC(=O)N3CCC(C)(O)CC3)nc12 [Tozadenant, reference compound] has what half-life?
Output: 11

* * *

target: human A3 receptor (Homo sapiens); test: cAMP (HTRF) functional assay, recombinant CHO cells expressing human A3 receptor, forskolin + agonist IB-MECA
Sequence (P0DMS8 whole entry): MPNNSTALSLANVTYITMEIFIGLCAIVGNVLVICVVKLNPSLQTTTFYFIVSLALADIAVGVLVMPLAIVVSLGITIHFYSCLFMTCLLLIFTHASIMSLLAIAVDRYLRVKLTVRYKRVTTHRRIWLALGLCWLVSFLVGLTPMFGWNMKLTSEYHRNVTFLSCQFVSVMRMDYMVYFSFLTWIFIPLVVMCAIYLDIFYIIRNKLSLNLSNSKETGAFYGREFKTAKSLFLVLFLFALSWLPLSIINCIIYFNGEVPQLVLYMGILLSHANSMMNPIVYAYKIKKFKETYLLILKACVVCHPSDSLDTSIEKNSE
Hi there, I'd appreciate the recorded IC50 for every entry that follows.

Input: Entry "COc1ncc(C2CCOCC2)c2sc(NC(=O)c3ccc(C(=O)N(C)C)cc3)nc12" has what IC50?
Output: > 1000 nM

Input: Entry "COc1ncc(-c2ccccc2)c2sc(NC(=O)C3CC3)nc12" has what IC50?
Output: < 1000 nM

Input: Entry "COc1ncc(-c2ccccc2)c2sc(NC(=O)c3ccc(C(=O)NCCO)cc3)nc12" has what IC50?
Output: < 1000 nM

Input: Entry "COc1ncc(-c2cnn(C)c2)c2sc(NC(=O)c3cnc(C)o3)nc12" has what IC50?
Output: > 1000 nM

Input: Entry "COc1ncc(-c2ccccc2)c2sc(NC(=O)c3cnc(C)o3)nc12" has what IC50?
Output: < 1000 nM

Input: Entry "COc1ncc(N2CCOCC2)c2sc(NC(=O)N3CC[C@@]4(CCOC4)C3)nc12" has what IC50?
Output: > 1000 nM

Input: Entry "COc1ncc(N2CCOCC2)c2sc(NC(=O)N3CCC(O)(Cc4ccccc4)CC3)nc12" has what IC50?
Output: > 1000 nM

Input: Entry "COCCn1cc(C(=O)Nc2nc3c(OC)ncc(N4CCOCC4)c3s2)cn1" has what IC50?
Output: > 1000 nM

Input: Entry "COCCOc1cccc(-c2cnc(OC)c3nc(NC(=O)c4ccc(C(=O)N(C)C)cc4)sc23)c1" has what IC50?
Output: < 1000 nM

Input: Entry "COc1ncc(-c2ccccc2)c2sc(NC(=O)C3(N)CC3)nc12" has what IC50?
Output: < 1000 nM

Input: Entry "COc1ncc(-c2ccccc2)c2sc(NC(=O)c3cnn(C)c3)nc12" has what IC50?
Output: < 1000 nM

Input: Entry "COCCOc1cccc(-c2cnc(OC)c3nc(NC(=O)N4CCC5(CCOCC5)C4)sc23)c1" has what IC50?
Output: > 1000 nM

Input: Entry "COc1ncc(C2CCOCC2)c2sc(NC(=O)N3CCC(C)(O)CC3)nc12" has what IC50?
Output: > 1000 nM

Input: Entry "COc1ncc(-c2cnn(C)c2)c2sc(NC(=O)C3CC3)nc12" has what IC50?
Output: < 1000 nM

Input: Entry "COc1ncc(-c2ccccc2)c2sc(NC(=O)N3CC[C@@]4(CCOC4)C3)nc12" has what IC50?
Output: > 1000 nM

Input: Entry "COc1ncc(-c2ccccc2F)c2sc(NC(=O)N3CCC4(CCOCC4)C3)nc12" has what IC50?
Output: > 1000 nM

Input: Entry "COc1ncc(C2=CCOCC2)c2sc(NC(=O)c3cnn(C)c3)nc12" has what IC50?
Output: < 1000 nM

Input: Entry "COc1nc(F)c(N2CCOCC2)c2sc(NC(=O)c3ccc(N4C(=O)CCC4=O)cc3)nc12" has what IC50?
Output: > 1000 nM

Input: Entry "COCCn1cc(C(=O)Nc2nc3c(OC)ncc(C4CCOCC4)c3s2)cn1" has what IC50?
Output: < 1000 nM

Input: Entry "COc1ncc(-c2cnn(C)c2)c2sc(NC(=O)N3CCC(C)(O)CC3)nc12" has what IC50?
Output: < 1000 nM

Input: Entry "COCCOc1cccc(-c2c(F)nc(OC)c3nc(NC(=O)N4CCC5(CCOCC5)C4)sc23)c1" has what IC50?
Output: < 100 nM

Input: Entry "COc1ncc(C2CCOCC2)c2sc(NC(=O)c3cnn(C)c3)nc12" has what IC50?
Output: < 1000 nM

Input: Entry "COc1ncc(-c2ccccc2)c2sc(NC(=O)N3CCC4(CCOCC4)C3)nc12" has what IC50?
Output: > 1000 nM

Input: Entry COc1ncc(-c2ccccc2)c2sc(NC(=O)N3CCC4(CCCOC4)C3)nc12 (stereo not drawn) has what IC50?
Output: > 1000 nM

Hello, the source for this data is patent US11186592B2, in case you need it.
